# Test target: MN9D HM (caspase-1 treated) derived caspase
# Protocol: Inhibition of DEVD-amc cleavage, caspase-1 activated MN9D heavy membranes

{"columns": ["Compound", "Test target", "IC50"],
 "data": [
  ["CC(=O)N[C@@H](Cc1ccc(O)cc1)C(=O)N[C@H](C(=O)N[C@@H](C)C(=O)N[C@H](C=O)CC(=O)O)C(C)C [YVAD-ald]", "MN9D HM (caspase-1 treated) derived caspase", "> 10 µM"]
]}

###

# Test target: 697-neo HM (caspase-1 treated) derived caspase (Homo sapiens, UniProt P42574)
# Construct: the heavy membrane caspase is comprised of a large 19-kDa subunit and a smaller 12-kDa subunit; endogenous in cells; supernatant assayed
# Sequence (P42574 14-175): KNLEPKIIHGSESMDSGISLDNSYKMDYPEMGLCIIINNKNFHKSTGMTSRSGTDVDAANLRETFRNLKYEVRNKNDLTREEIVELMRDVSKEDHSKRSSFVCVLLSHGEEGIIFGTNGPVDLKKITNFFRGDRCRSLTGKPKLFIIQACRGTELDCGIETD
# Sequence (P42574 176-277): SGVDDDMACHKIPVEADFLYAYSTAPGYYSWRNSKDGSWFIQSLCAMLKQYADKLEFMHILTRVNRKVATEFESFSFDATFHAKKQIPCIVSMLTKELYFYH
# Protocol: Inhibition of DEVD-amc cleavage, caspase-1 activated 697-neo heavy membranes
# Cond: inhibition of DEVD-amc cleavage
# Method: SEQ ID NO:6) substrate in ICE buffer (20 mM HEPES, 1 mM EDTA, 0.1% CHAPS, 10% sucrose, 5 mM DTT, pH 7.5) in duplicate Cytoplate wells. […] KM values were calculated from these measurements using the equation: where ΔFL/Δt is the observed initial rate of fluorescence change at substrate concentration [S] and (ΔFL/Δt)MAX is the initial rate of fluorescence change at saturating substrate concentrations. […]

{"columns": ["Molecule", "Test target", "IC50"],
 "data": [
  ["CC(=O)N[C@@H](Cc1ccc(O)cc1)C(=O)N[C@H](C(=O)N[C@@H](C)C(=O)N[C@H](C=O)CC(=O)O)C(C)C", "697-neo HM (caspase-1 treated) derived caspase (Homo sapiens, UniProt P42574)", "> 10 µM"]
]}

###

# Test target: recombinant human caspase-3 (r-caspase-3 (His)6) (Homo sapiens, UniProt P42574)
# Construct: The large subunit of purified bacterially expressed caspase-3 migrates as a 17-kDa band; purified fully-processed recombinant human caspase-3; His6 (C); made in house; host or cells: E. coli BL21 (DE3), pET21b; Ni2+ chelating column
# Sequence (P42574 29-175 limits assumed): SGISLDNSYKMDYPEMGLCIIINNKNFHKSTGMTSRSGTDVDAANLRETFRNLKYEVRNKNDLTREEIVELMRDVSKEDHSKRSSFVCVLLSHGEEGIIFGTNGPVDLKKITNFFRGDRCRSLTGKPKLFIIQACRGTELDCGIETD
# Sequence (P42574 176-277 limits assumed): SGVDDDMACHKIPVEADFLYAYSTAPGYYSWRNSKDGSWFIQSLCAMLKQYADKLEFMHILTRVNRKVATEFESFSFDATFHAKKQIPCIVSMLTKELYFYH
# Protocol: DEVD-amc cleavage by recombinant caspase-3
# Type: biochemical
# Cond: inhibition of DEVD-amc cleavage; read-out: IC50 r-caspase-3 (His)6
# Method: For inhibition studies, 50 μl of the enzyme was pretreated with 150 μl inhibitor for 30 min at room temperature prior to the addition of 50 μl of 50 μM substrate solution.
pIC50: −log10 of the molar value.
Reported metric: pIC50

{"columns": ["Molecule", "Reported metric", "Result"],
 "data": [
  ["CC(=O)N[C@@H](Cc1ccc(O)cc1)C(=O)N[C@H](C(=O)N[C@@H](C)C(=O)N[C@H](C=O)CC(=O)O)C(C)C", "pIC50", "< 5.00"]
]}

###

# Test target: purified membrane derived caspase-3 (Homo sapiens)
# Construct: the heavy membrane caspase is comprised of a large 19-kDa subunit and a smaller 12-kDa subunit; endogenous in cells; host or cells: 697 human lymphoblastoid cells
# Protocol: DEVD-AMC cleavage by affinity purified membrane derived caspase-3 from 697 cells
# Assay type: biochemical
# Cond: inhibition of DEVD-AMC cleavage, Table III; read-out: IC50 Membrane (purified membrane derived caspase-3)
pIC50: −log10 of the molar value.

{"columns": ["Molecule", "Test target", "pIC50"],
 "data": [
  ["CC(C)[C@H](NC(=O)[C@H](CCC(=O)O)NC(=O)OCc1ccccc1)C(=O)N[C@H](C=O)CC(=O)O", "purified membrane derived caspase-3 (Homo sapiens)", 7.49]
]}
